Target: NMDA receptor (NR1 + NR2 subunits) (Rattus norvegicus, UniProt P35439+Q00960)
Sequence (Q00960 27-1482, other chains not shown): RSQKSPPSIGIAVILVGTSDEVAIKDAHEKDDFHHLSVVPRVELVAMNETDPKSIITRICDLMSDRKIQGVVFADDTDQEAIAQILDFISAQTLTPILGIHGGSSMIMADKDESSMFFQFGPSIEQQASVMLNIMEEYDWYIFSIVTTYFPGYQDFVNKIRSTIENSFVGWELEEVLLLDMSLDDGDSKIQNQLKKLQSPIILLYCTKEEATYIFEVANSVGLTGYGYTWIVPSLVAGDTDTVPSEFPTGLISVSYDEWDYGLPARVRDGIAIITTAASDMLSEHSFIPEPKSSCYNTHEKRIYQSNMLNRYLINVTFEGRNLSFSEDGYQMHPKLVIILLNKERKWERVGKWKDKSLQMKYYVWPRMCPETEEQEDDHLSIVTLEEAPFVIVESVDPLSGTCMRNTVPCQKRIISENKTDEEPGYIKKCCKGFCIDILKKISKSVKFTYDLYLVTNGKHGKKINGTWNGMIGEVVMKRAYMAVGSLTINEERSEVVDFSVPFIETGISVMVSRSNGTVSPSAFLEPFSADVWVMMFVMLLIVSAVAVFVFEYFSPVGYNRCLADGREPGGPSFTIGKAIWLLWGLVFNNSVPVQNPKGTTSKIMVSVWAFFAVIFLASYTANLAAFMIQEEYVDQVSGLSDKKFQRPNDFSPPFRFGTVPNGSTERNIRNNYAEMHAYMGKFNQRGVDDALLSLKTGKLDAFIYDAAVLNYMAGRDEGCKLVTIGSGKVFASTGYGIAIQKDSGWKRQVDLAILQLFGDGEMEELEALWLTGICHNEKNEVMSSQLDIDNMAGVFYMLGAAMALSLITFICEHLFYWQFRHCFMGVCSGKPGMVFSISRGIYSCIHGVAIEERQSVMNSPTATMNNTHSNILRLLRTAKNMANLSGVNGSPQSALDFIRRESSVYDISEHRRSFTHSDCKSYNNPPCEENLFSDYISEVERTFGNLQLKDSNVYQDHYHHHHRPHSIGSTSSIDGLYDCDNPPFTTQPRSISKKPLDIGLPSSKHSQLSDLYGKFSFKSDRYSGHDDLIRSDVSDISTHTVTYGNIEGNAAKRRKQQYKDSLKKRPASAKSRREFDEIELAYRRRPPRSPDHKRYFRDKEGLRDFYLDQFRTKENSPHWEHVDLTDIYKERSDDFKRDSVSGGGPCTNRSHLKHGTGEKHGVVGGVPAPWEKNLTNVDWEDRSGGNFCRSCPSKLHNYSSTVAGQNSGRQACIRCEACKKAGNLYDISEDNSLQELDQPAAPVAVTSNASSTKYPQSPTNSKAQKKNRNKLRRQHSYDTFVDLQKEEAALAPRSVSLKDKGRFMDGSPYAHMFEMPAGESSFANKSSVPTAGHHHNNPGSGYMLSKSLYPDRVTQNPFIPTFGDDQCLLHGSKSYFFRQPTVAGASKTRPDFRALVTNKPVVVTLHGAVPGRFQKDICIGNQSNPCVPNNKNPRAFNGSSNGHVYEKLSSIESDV
Assay: Two electrode voltage clamp recording from Xenopus laevis oocytes (pH dependence of NMDA antagonism)
Format: cell-based
Conditions: pH 6.9; Table 21; read-out: IC50 at pH 6.9
experimental_readout: IC50 (nM)

compound: CS(=O)(=O)Nc1ccc(CCC(=O)N2CCN(c3ccc(Cl)c(Cl)c3)CC2)cc1
IC50, nM: 670

compound: O=C(COc1ccc2[nH]c(=O)oc2c1)N1CCN(c2ccc(F)c(F)c2)CC1
IC50, nM: 307

compound: CS(=O)(=O)Nc1ccc(OCC(=O)NCCNc2ccc(Cl)c(Cl)c2)cc1
IC50, nM: 13

compound: CS(=O)(=O)Nc1ccc(CCC(=O)NCCNc2ccc(Cl)c(Cl)c2)cc1
IC50, nM: 30

compound: O=C(COc1ccc2[nH]c(=O)oc2c1)N1CCN(c2ccc(Cl)cc2)CC1
IC50, nM: 189

I = CS(=O)(=O)Nc1ccc(CCC(=O)NC/C=C/c2ccc(Cl)c(Cl)c2)cc1
II = O=C(COc1ccc2[nH]c(=O)oc2c1)N1CCN(c2ccc(Cl)c(Cl)c2)CC1 [drawing 768]
III = CS(=O)(=O)Nc1ccc(CCC(=O)N2CCN(c3ccc(F)c(F)c3)CC2)cc1
IV = O=C(COc1ccc2[nH]c(=O)oc2c1)NCCNc1ccc(Cl)c(Cl)c1
Query: Arrange items by their IC50 values in increasing order. Sort and list the labels as requested.
Result: I, II, IV, III
(I: 10 nM, II: 41 nM, IV: 80 nM, III: 2200 nM)

I = O=C(COc1ccc(O)cc1)NCCNc1ccc(Cl)c(Cl)c1
II = CS(=O)(=O)Nc1ccc(CCCNCCNc2ccc(Cl)c(Cl)c2)cc1
Query: Lab note: check whether I or II has the lower measured IC50. Reply briefly: the label of your chosen item.
Result: II
